target: human DGAT2 (Homo sapiens); construct: FLAG (DYKDDDDK); membrane fraction used; experiment: DGAT2 enzyme activity inhibition, Phospholipid FlashPlate SPA; conditions: recombinant human DGAT2 membrane protein from Sf-21 cells; inhibition of [14C]-TG production; 37° C.
Sequence (Q96PD7 whole entry): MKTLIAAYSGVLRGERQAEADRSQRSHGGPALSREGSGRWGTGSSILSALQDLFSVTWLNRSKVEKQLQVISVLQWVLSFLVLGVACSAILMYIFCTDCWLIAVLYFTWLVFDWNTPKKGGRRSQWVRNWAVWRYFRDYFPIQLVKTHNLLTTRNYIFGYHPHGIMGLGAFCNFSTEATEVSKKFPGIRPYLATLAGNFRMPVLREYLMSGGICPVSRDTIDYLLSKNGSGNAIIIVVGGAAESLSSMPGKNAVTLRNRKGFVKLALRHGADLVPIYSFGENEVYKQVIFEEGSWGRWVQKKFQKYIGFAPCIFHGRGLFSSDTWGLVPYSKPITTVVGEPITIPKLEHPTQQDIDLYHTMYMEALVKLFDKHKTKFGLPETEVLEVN
Assign labels as follows, please: Y for IC50 below 100 nM; N for IC50 equal to or exceeding 100 nM.

>  <molecule>
CCOc1ccccc1O[C@@H]1CCCN(c2cncc(Nc3cc(C(=O)O)ccn3)n2)C1

>  <assigned.class>
N

$$$$
>  <molecule>
CCOc1ccccc1O[C@@H]1CCCN(c2cncc(Nc3ccc(/C=C/C(=O)O)cn3)n2)C1

>  <assigned.class>
N

$$$$
>  <molecule>
CCOc1ccccc1O[C@@H]1CCCN(c2cncc(Nc3ccc(C(C)(C)C(=O)O)cn3)n2)C1

>  <assigned.class>
N

$$$$
>  <molecule>
CCOc1ccccc1O[C@@H]1CCCN(c2cncc(Nc3cccc(-c4cccc(CC(C)(C)C(=O)O)c4)n3)n2)C1

>  <assigned.class>
Y

$$$$
>  <molecule>
CCOc1ccccc1O[C@@H]1CCCN(c2cncc(Nc3cccc(-c4ccc(OC(C)(C)C(=O)O)cc4)n3)n2)C1

>  <assigned.class>
N

$$$$
>  <molecule>
CCOc1cccnc1O[C@@H]1CCCN(c2cncc(Nc3nccc(Oc4ccc(CC(=O)O)cc4)n3)n2)C1

>  <assigned.class>
N

$$$$
>  <molecule>
CCOc1ccccc1O[C@@H]1CCCN(c2cncc(Nc3ncc(C(=O)O)s3)n2)C1

>  <assigned.class>
N

$$$$
>  <molecule>
CCOc1ccccc1O[C@@H]1CCCN(c2cncc(Nc3cccc(Oc4cccc(CC(=O)O)c4)n3)n2)C1

>  <assigned.class>
Y

$$$$
>  <molecule>
CCOc1ccccc1O[C@@H]1CCCN(c2cncc(Nc3nccc(N4CCC[C@@H](OC(C)(C)C(=O)O)C4)n3)n2)C1

>  <assigned.class>
N

$$$$
